Values from patent US20220267469A1

- tested on: T1, Biotinylated human BSSL (human, UniProt P19835 21-753, Biotinylated on glycosacarides, 30-40 biotin/BSSL)
- T1 construct: hBSSL biotinylated in house; also called b-hBSSL; human BSSL-biotin
- T1 sequence: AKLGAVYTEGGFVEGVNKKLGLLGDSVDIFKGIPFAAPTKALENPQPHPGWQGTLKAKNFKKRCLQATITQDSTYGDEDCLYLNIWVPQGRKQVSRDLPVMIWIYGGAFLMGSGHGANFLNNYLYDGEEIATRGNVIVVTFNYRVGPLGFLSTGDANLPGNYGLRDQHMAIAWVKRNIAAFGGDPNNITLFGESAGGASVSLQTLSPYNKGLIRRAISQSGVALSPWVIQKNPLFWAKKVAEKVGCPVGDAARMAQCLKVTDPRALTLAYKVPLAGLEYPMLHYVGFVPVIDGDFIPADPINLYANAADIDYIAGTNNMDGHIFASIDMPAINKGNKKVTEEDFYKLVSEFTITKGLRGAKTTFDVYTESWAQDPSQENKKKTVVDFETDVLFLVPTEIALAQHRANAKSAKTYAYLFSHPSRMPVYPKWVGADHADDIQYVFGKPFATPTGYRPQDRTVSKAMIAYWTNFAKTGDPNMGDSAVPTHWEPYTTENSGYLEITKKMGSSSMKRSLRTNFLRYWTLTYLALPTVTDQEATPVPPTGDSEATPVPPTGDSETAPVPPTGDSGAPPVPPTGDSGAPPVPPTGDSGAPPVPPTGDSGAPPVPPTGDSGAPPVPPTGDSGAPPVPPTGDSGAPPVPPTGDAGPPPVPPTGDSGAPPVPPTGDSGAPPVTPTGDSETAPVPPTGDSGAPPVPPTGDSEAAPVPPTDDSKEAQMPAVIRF
- measurement protocol: flow cytometry displacement assay; 2.0 ug antibody, 1 ug b-hBSSL
# Lookup of reported percentage reduction of b-hBSSL binding to CD14+ monocytes keyed by entry
Quick note: give the figure in %, leave out the unit.

Worked examples, 3 binders total:
binder: S-SL048-48 hIgG4 S228P (antibody, V domains shown, Tested as human IgG4 S228P) VH: QVQLVQSGAEVKKPGASVKVSCKASGYTFTSYNMHWVRQAPGQGLEWIGVINPGDGATSYAQKFQGRVTMTRDTSTSTVYMELSSLRSEDTAVYYCARDYYGSSPLGYWGQGTLVTVSS VL: DIQMTQSPSSLSASVGDRVTITCRASPSISYMNWYQQKPGKAPKLLIYATSRLQSGVPSRFSGSGSGTDFTLTISSLQPEDFATYYCHQRSSSPTFGQGTKLEIK
reported value: 61
--
binder: AS20 mouse IgG1 (antibody, V domains shown, also called AS20 mlgG1; AS20 mIgG1) VH: QVQLQQPGAELVKPGASVKMSCKASGYTFTSYNMHWVKQTPGQGLEWIGVIYPGNGDTSYNQKFKGKATLTADKSSSTAYMQLSSLTSEDSAVYYCARDYYGSSPLGYWGQGTTLTVSS VL: QIVLTQSPAVMSASPGEKVTMTCSASSSISYMHWYQQKPGTSPKRWIYDTSKLASGVPARFSGSGSGTSYSLTISSMEAEDAATYYCHQRSSYPTFGGGTKLEIK
reported value: 74
--
binder: S-SL048-66 hIgG4 S228P (antibody, V domains shown, Tested as human IgG4 S228P) VH: QVQLVQSGAEVKKPGASVKVSCKASGYTFTSYNMHWVRQAPGQGLEWMGVINPGDGATSYNQKFKGRVTMTRDTSTSTVYMELSSLRSEDTAVYYCARDYYGSSPLGYWGQGTLVTVSS VL: DIQMTQSPSSLSASVGDRVTITCSASQSISYMNWYQQKPGKAPKLLIYDASSLASGVPSRFSGSGSGTDFTLTISSLQPEDFATYYCHQRSSTPTFGQGTKLEIK
reported value: 43

In the following, a different binder is considered.
*Q* Which percentage reduction of b-hBSSL binding to CD14+ monocytes value is on record for S-SL048-65 hIgG4 S228P (antibody, V domains shown, Tested as human IgG4 S228P) VH: QVQLVQSGAEVKKPGASVKVSCKASGYTFTSYNMHWVRQAPGQGLEWIGVINPGDGATSYAQKFKGRVTMTRDTSTSTVYMELSSLRSEDTAVYYCARDYYGSSPLGYWGQGTLVTVSS VL: DIQMTQSPSSLSASVGDRVTITCSASQSISYLNWYQQKPGKAPKLLIYDASSLPSGVPSRFSGSGSGTDFTLTISSLQPEDFATYYCHQRSSSPTFGQGTKLEIK ?
*A* 35
